Data provenance is patent US6130333A.

cGMP-specific PDE from bovine aorta (Bos taurus): recorded IC50 for assorted compounds
measurement-label: IC50 (nM)

compound-structure-string | measurement-label | obs-value
Cc1ccc(-c2nc3ccccc3n2Cc2ccc3c(c2)OCO3)cc1 | IC50 | 9
c1ccc2cc(Cn3c(-c4ccc5c(c4)OCO5)nc4ccccc43)ccc2c1 | IC50 | 24
c1ccc2c(c1)nc(-c1ccc3c(c1)OCO3)n2Cc1ccc2c(c1)OCO2 | IC50 | 3
c1ccc(Cn2c(-c3ccc4c(c3)OCO4)nc3ccccc32)cc1 | IC50 | 11
